# test_description: Cytotoxicity, MTT reduction assay, COS-7 cells
# Type: cell-based
# condition_description: African green monkey; MTT, 48 h, up to 50 μM; read-out: Cytotoxicity Cos-7 Cells GI50
Bridge positions count the residues as written; N and C are the ends. Square brackets hold non-standard residues; d marks the D form. Peptide text beside a SMILES is read from it. Lys(iPr) = CC(C)NCCCC[C@H](N)C(=O)O; Dab = NCC[C@H](N)C(=O)O
measured_endpoint: GI50 at 48 h

Asked: Need GI50 at 48 h, item CC(C)NCCCC[C@@H]1NC(=O)[C@H](CCC(N)=O)NC(=O)[C@H](Cc2ccc(O)cc2)NC(=O)[C@@H]2CSSC[C@H](NC(=O)[C@H](C)NC(=O)[C@H](Cc3c[nH]cn3)NC(=O)[C@H](Cc3ccc(O)cc3)NC(=O)[C@@H]3CCCN3C(=O)[C@H]3CCCN3C1=O)C(=O)N[C@@H](CO)C(=O)N[C@@H](C)C(=O)N[C@H](Cc1ccc(O)cc1)C(=O)N[C@@H](CCN)C(=O)N[C@@H](CCCNC(=N)N)C(=O)N[C@@H](Cc1ccc(O)cc1)C(=O)N2 [Ex. 3] (cyclo(YHACSA[dY][Dab]RYCYQ[Lys(iPr)][dP]P); disulfide 4-11)
Given back: > 50 µM

###

# test_description: Pharmacokinetic study (PK), i.v., CD-1 mice
# Assay type: in vivo
# condition_description: male, CD-1, in vivo, iv; mouse, i.v. 1 mg/kg, 0.083 h; read-out: Calc. Conc. (plasma)
Bridge positions count the residues as written; N and C are the ends. Square brackets hold non-standard residues; d marks the D form. Peptide text beside a SMILES is read from it. Lys(iPr) = CC(C)NCCCC[C@H](N)C(=O)O; Dab = NCC[C@H](N)C(=O)O
measured_endpoint: level at 0.083 h

Asked: Need level at 0.083 h, item CC(C)NCCCC[C@@H]1NC(=O)[C@H](CCC(N)=O)NC(=O)[C@H](Cc2ccc(O)cc2)NC(=O)[C@@H]2CSSC[C@H](NC(=O)[C@H](C)NC(=O)[C@H](Cc3c[nH]cn3)NC(=O)[C@H](Cc3ccc(O)cc3)NC(=O)[C@@H]3CCCN3C(=O)[C@H]3CCCN3C1=O)C(=O)N[C@@H](CO)C(=O)N[C@@H](C)C(=O)N[C@H](Cc1ccc(O)cc1)C(=O)N[C@@H](CCN)C(=O)N[C@@H](CCCNC(=N)N)C(=O)N[C@@H](Cc1ccc(O)cc1)C(=O)N2 [Ex. 3] (cyclo(YHACSA[dY][Dab]RYCYQ[Lys(iPr)][dP]P); disulfide 4-11)
Given back: 1170 ng/mL

###

# test_description: Pharmacokinetic study (PK), i.v., CD-1 mice
# Assay type: in vivo
# condition_description: male, CD-1, in vivo, iv; mouse, i.v. 1 mg/kg, one-compartmental model
Bridge positions count the residues as written; N and C are the ends. Square brackets hold non-standard residues; d marks the D form. Peptide text beside a SMILES is read from it. Lys(iPr) = CC(C)NCCCC[C@H](N)C(=O)O; Dab = NCC[C@H](N)C(=O)O
measured_endpoint: Cmax (ng/mL)
Enter your answer as a number in ng/mL; do not include the unit.

Asked: Need Cmax, item CC(C)NCCCC[C@@H]1NC(=O)[C@H](CCC(N)=O)NC(=O)[C@H](Cc2ccc(O)cc2)NC(=O)[C@@H]2CSSC[C@H](NC(=O)[C@H](C)NC(=O)[C@H](Cc3c[nH]cn3)NC(=O)[C@H](Cc3ccc(O)cc3)NC(=O)[C@@H]3CCCN3C(=O)[C@H]3CCCN3C1=O)C(=O)N[C@@H](CO)C(=O)N[C@@H](C)C(=O)N[C@H](Cc1ccc(O)cc1)C(=O)N[C@@H](CCN)C(=O)N[C@@H](CCCNC(=N)N)C(=O)N[C@@H](Cc1ccc(O)cc1)C(=O)N2 [Ex. 3] (cyclo(YHACSA[dY][Dab]RYCYQ[Lys(iPr)][dP]P); disulfide 4-11)
Given back: 1310

###

# test_description: Pharmacokinetic study (PK), i.v., CD-1 mice
# Format: in vivo
# condition_description: male, CD-1, in vivo, iv; mouse, i.v. 1 mg/kg, one-compartmental model
Bridge positions count the residues as written; N and C are the ends. Square brackets hold non-standard residues; d marks the D form. Peptide text beside a SMILES is read from it. Lys(iPr) = CC(C)NCCCC[C@H](N)C(=O)O; Dab = NCC[C@H](N)C(=O)O
measured_endpoint: AUC(0-inf) (ng·h/mL)
Enter your answer as a number in ng·h/mL; do not include the unit.

Asked: Need AUC(0-inf), item CC(C)NCCCC[C@@H]1NC(=O)[C@H](CCC(N)=O)NC(=O)[C@H](Cc2ccc(O)cc2)NC(=O)[C@@H]2CSSC[C@H](NC(=O)[C@H](C)NC(=O)[C@H](Cc3c[nH]cn3)NC(=O)[C@H](Cc3ccc(O)cc3)NC(=O)[C@@H]3CCCN3C(=O)[C@H]3CCCN3C1=O)C(=O)N[C@@H](CO)C(=O)N[C@@H](C)C(=O)N[C@H](Cc1ccc(O)cc1)C(=O)N[C@@H](CCN)C(=O)N[C@@H](CCCNC(=N)N)C(=O)N[C@@H](Cc1ccc(O)cc1)C(=O)N2 [Ex. 3] (cyclo(YHACSA[dY][Dab]RYCYQ[Lys(iPr)][dP]P); disulfide 4-11)
Given back: 898

###

# test_description: Pharmacokinetic study (PK), i.v., CD-1 mice
# Assay type: in vivo
# condition_description: male, CD-1, in vivo, iv; mouse, i.v. 1 mg/kg, one-compartmental model
Bridge positions count the residues as written; N and C are the ends. Square brackets hold non-standard residues; d marks the D form. Peptide text beside a SMILES is read from it. Lys(iPr) = CC(C)NCCCC[C@H](N)C(=O)O; Dab = NCC[C@H](N)C(=O)O
measured_endpoint: half-life (min)
Enter your answer as a number in min; do not include the unit.

Asked: Need half-life, item CC(C)NCCCC[C@@H]1NC(=O)[C@H](CCC(N)=O)NC(=O)[C@H](Cc2ccc(O)cc2)NC(=O)[C@@H]2CSSC[C@H](NC(=O)[C@H](C)NC(=O)[C@H](Cc3c[nH]cn3)NC(=O)[C@H](Cc3ccc(O)cc3)NC(=O)[C@@H]3CCCN3C(=O)[C@H]3CCCN3C1=O)C(=O)N[C@@H](CO)C(=O)N[C@@H](C)C(=O)N[C@H](Cc1ccc(O)cc1)C(=O)N[C@@H](CCN)C(=O)N[C@@H](CCCNC(=N)N)C(=O)N[C@@H](Cc1ccc(O)cc1)C(=O)N2 [Ex. 3] (cyclo(YHACSA[dY][Dab]RYCYQ[Lys(iPr)][dP]P); disulfide 4-11)
Given back: 30

###

# test_description: Pharmacokinetic study (PK), i.v., CD-1 mice
# Assay type: in vivo
# condition_description: male, CD-1, in vivo, iv; mouse, i.v. 1 mg/kg, one-compartmental model; read-out: Vdis
Bridge positions count the residues as written; N and C are the ends. Square brackets hold non-standard residues; d marks the D form. Peptide text beside a SMILES is read from it. Lys(iPr) = CC(C)NCCCC[C@H](N)C(=O)O; Dab = NCC[C@H](N)C(=O)O
measured_endpoint: Vd (L/kg)
Enter your answer as a number in L/kg; do not include the unit.

Asked: Need Vd, item CC(C)NCCCC[C@@H]1NC(=O)[C@H](CCC(N)=O)NC(=O)[C@H](Cc2ccc(O)cc2)NC(=O)[C@@H]2CSSC[C@H](NC(=O)[C@H](C)NC(=O)[C@H](Cc3c[nH]cn3)NC(=O)[C@H](Cc3ccc(O)cc3)NC(=O)[C@@H]3CCCN3C(=O)[C@H]3CCCN3C1=O)C(=O)N[C@@H](CO)C(=O)N[C@@H](C)C(=O)N[C@H](Cc1ccc(O)cc1)C(=O)N[C@@H](CCN)C(=O)N[C@@H](CCCNC(=N)N)C(=O)N[C@@H](Cc1ccc(O)cc1)C(=O)N2 [Ex. 3] (cyclo(YHACSA[dY][Dab]RYCYQ[Lys(iPr)][dP]P); disulfide 4-11)
Given back: 0.762

###

# test_description: Pharmacokinetic study (PK), i.v., CD-1 mice
# Type: in vivo
# condition_description: male, CD-1, in vivo, iv; mouse, i.v. 1 mg/kg, 0.25 h; read-out: Calc. Conc. (plasma)
Bridge positions count the residues as written; N and C are the ends. Square brackets hold non-standard residues; d marks the D form. Peptide text beside a SMILES is read from it. Lys(iPr) = CC(C)NCCCC[C@H](N)C(=O)O; Dab = NCC[C@H](N)C(=O)O
measured_endpoint: level at 0.25 h (ng/mL)
Enter your answer as a number in ng/mL; do not include the unit.

Asked: Need level at 0.25 h, item CC(C)NCCCC[C@@H]1NC(=O)[C@H](CCC(N)=O)NC(=O)[C@H](Cc2ccc(O)cc2)NC(=O)[C@@H]2CSSC[C@H](NC(=O)[C@H](C)NC(=O)[C@H](Cc3c[nH]cn3)NC(=O)[C@H](Cc3ccc(O)cc3)NC(=O)[C@@H]3CCCN3C(=O)[C@H]3CCCN3C1=O)C(=O)N[C@@H](CO)C(=O)N[C@@H](C)C(=O)N[C@H](Cc1ccc(O)cc1)C(=O)N[C@@H](CCN)C(=O)N[C@@H](CCCNC(=N)N)C(=O)N[C@@H](Cc1ccc(O)cc1)C(=O)N2 [Ex. 3] (cyclo(YHACSA[dY][Dab]RYCYQ[Lys(iPr)][dP]P); disulfide 4-11)
Given back: 999

Recorded values, source patent US9556231B2.
